All figures here come from PubChem BioAssay (NCI).

Here the recorded growth is given for each entry.
Tested on: NCI/ADR-RES ovarian
Assay: NCI-60 one-dose screen, 48 h (100 = growth as untreated, 0 = no growth, -100 = all killed)
Conditions: 10 µM unless noted
Method: Growth inhibition of the NCI/ADR-RES human […] tumor cell line is measured as a screen for anti-cancer activity. Cells are grown in 96 well plates and exposed to the test compound for 48 hours. Compounds are tested at a single concentration, which is 10^-5 M for most compounds. The reported endpoint is percent growth (GI% or GIPRCNT), where numbers from 0 - 100% represent growth inhibition, and numbers from -100% - 0 represent cell death. For example, a value of 40 represents 60% growth inhibition. […]
Compounds without any hit were thinned out: in the full panel of roughly 83,000, 20% have a hit. Calls of active or inactive are those of the source. The calls were made as follows: active = growth percent below 10; inactive = the rest.

CCOC(=O)c1c(C)n(Cc2ccccc2)c2cc(CN(C)C)c(O)cc12    63.5% (inactive)
C#Cc1ccc2c(c1)C(c1ccccc1F)=NCC(=O)N2C    16.6% (inactive)
CN1C(=O)C23CC4(C56CC78SSC(CO)(C(=O)N7C5Nc5ccccc56)N(C)C8=O)c5ccccc5NC4N2C(=O)C1(CO)SS3 (stereo not given)    -23.4% (active)
COP(=O)(OC)C(O)c1ccc(Cl)cc1 (stereo not given)    96.9% (inactive)
Nc1ccc2c(c1)oc1ccccc12    95.1% (inactive)

Incoming: Using the record for "CCC(=O)Nc1ccc(Cl)c(Cl)c1" , report its growth.
Outgoing: 102% (inactive)

Incoming: Fill in the blank: the reported growth of CC(CO)NC1CCCCC1 (stereo not given) is ____.
Outgoing: 116% (inactive)

Incoming: Recorded growth of "COC(=O)[C@@H](C)C[C@H](Cc1ccccc1)NC(=O)c1nc([C@@H](C[C@H](C(C)C)N(C)C(=O)[C@@H](NC(=O)[C@H]2CC(=O)CCN2C)C(C)C)OC(C)=O)sc1C(C)C" , please.
Outgoing: 54.3% (inactive)

Incoming: // lookup growth for "COP(=S)(N1CC1)N1CC1"
Outgoing: 103% (inactive)

Incoming: Would you kindly share the measured growth for O=C([O][Hg][CH2]C1COCC([CH2][Hg][O]C(=O)c2ccccc2)O1)c1ccccc1 (stereo not given) ?
Outgoing: 106% (inactive)

----------
System: LOX IMVI melanoma
Assay: NCI-60 one-dose screen, 48 h
Details: 10 µM unless noted
Compounds without any hit were thinned out: in the full panel of roughly 83,000, 20% have a hit. The source made the active and inactive calls. Rule for the calls: active = growth percent below 10; inactive = the rest.
Lab note: assign the record to one of true = active, false = inactive

O=C(CCCCCCC(=O)Nc1ccc(N(CCCl)CCCl)cc1)NO    true
COC(=O)CC12CC(NC(=O)c3csc([C@@H](C[C@H](C(C)C)N(C)C(=O)[C@@H](NC(=O)[C@H]4CCCCN4C)C(C)C)OC(C)=O)n3)(C1)C2    false
N#C[Se]CCN1C(=O)c2ccccc2C1=O    true
COC(=O)N[C@H]1CCc2c(Br)c(OC)c(OC)c(OC)c2-c2ccc(SC)c(=O)cc21    false
CC1(C)N=C(N)N=C(N)N1c1ccc(CCCCc2ccc(Cl)c(S(=O)(=O)F)c2)c(Cl)c1    false
CCOC(=O)CCC(NC(=O)C(Cc1ccc(N(CCCl)CCCl)cc1)NC=O)C(=O)OCC (stereo unspecified)    true
N#CC1(C#N)C(c2ccc(N(CCCl)CCCl)cc2)OC23CCCCC2C1(C#N)C(=N)O3 (stereo unspecified)    false
CCN1C(=O)C(=C/C=C/c2ccccc2)C(=O)N(CC)C1=O    false
CC[CH2][Sn]([Cl])([Cl])[CH2]CC    false
O=C1C2CCC1C(N1CCCC1)CC2 (stereo unspecified)    false

Incoming: Please indicate how the test categorized "COC(=O)[C@@H](C)C[C@H](Cc1ccccc1)NC(=O)c1csc([C@@H](C[C@H](C(C)C)N(C)C(=O)[C@@H](NC(=O)[C@H]2CCCCN2C)C2CC2)OC(C)=O)n1" .
Outgoing: true

Incoming: What did this assay record as the result for "CN(C)CCCOc1ccc2c(c1)c(C(=O)C(=O)NCCO)cn2Cc1ccccc1" ?
Outgoing: false

Incoming: Hi team, can someone confirm the assay call for "Fc1ccc2c(c1)c(-c1nc(-c3c[nH]c4ncccc34)cs1)cn2CCCCN1CCCCC1" ?
Outgoing: true

Incoming: Name the outcome recorded for CCCCCN(CCCCC)CC(O)c1cc(Cl)ccc1OC (stereo unspecified) in the assay.
Outgoing: false

Incoming: Entry COP(=O)(OC)C(O)c1ccc(Cl)cc1 (stereo unspecified) : call = ?
Outgoing: false

Incoming: What did the test return for "C=CCCCN=C=S" ?
Outgoing: false

Incoming: Returns: the outcome recorded for "CCCCC1(CCC)C(=O)NC(=S)NC1=O" in this assay.
Outgoing: false

Incoming: I'd appreciate the recorded outcome for "O=C([O][Hg][c]1ccccc1)c1ccccc1" from this test.
Outgoing: true

Incoming: Query: recorded result category for COc1ccc([As]=[As]c2ccc(OC)c(NCS(=O)(=O)O)c2)cc1NCS(=O)(=O)O (stereo unspecified) in this test
Outgoing: true

Incoming: For "c1ccc(COc2ccc3[nH]cc(CCN(Cc4ccccc4)Cc4ccccc4)c3c2)cc1" , which call appears in the assay record?
Outgoing: false

Incoming: Can you look up the reported call for "CN[C@]1(c2ccccc2Cl)CCCC[C@H]1NCCCN1CCN(C)CC1" for me?
Outgoing: false
